Reported log10 of TGI by item:
System: UO-31 renal
Assay: NCI tumour cell line growth inhibition, 48 h
reported property: log10 of TGI (log10 of the value in µM)

| molecule | log10 of TGI |
| --- | --- |
| CSc1nc(Cl)c2c(n1)Sc1ncnn1C2O (stereo not given) | 0.72 |
| Oc1ccc(-c2nc(-c3ccc4oc5ccc(-c6[nH]c(-c7ccc(O)cc7)nc6-c6ccccc6)cc5c4c3)c(-c3ccccc3)[nH]2)cc1 | 1.36 |
| C[As](C)SCC(COC(=O)c1ccccc1)OC(=O)c1ccccc1 (stereo not given) | 0.91 |
| Nc1n[nH]c(=O)c2c1c(Br)cn2C1OC(CO)C(O)C1O (stereo not given) | 1.43 |
| CC1CCCC2(O1)OC1CC(=O)OC1C1=C2C(=O)c2ccccc2C1=O (stereo not given) | 0.73 |
| O=C1N[C@@H](c2c[nH]c3ccc(Br)cc23)C(=O)N[C@H]1c1c[nH]c2ccc(Br)cc12 | 1.65 |
| Cc1ccc(-n2cc(-c3ccc(Cl)cc3)c3c(NNC(=S)NCc4ccccc4)ncnc32)cc1 | 1.38 |
| CC(C)(C)OC(=O)N1CC(COS(C)(=O)=O)c2ccc(O)cc21 (stereo not given) | 0.72 |
| COc1cc(C2C(C(=O)Nc3ccc(Cl)c(Cl)c3)=C(C)NC(C)=C2C(=O)Nc2ccc(Cl)c(Cl)c2)ccc1O | 1.41 |
| CC1SC(c2cccc(Oc3ccccc3)c2)N(CCc2cccs2)C1=O (stereo not given) | 0.28 |
| COc1ccc(C(=O)CC(Cl)=C(Cl)Cl)cc1 | 1.74 |
